Hello, the source for this data is patent US12139520B2, in case you need it.

- System: hAM1R (human, UniProt Q16602)
- Assay Name: cell-based or functional assay
Numbered stars: 1 amine (or outer) side, 2 acyl side, 3 side chain; on linkers, the order of the positions; unused ones are H or OH. Bridge positions count the residues as written; N and C are the ends. Square brackets hold non-standard residues; d marks the D form. Ends that are not written are not given here. * marks the point of attachment. C20 diacid = O=C(O)CCCCCCCCCCCCCCCCCCC(=O)*; γGlu = O=C(O)[C@H](CCC(=O)[*:2])N[*:1]; Hyp = O=C(O)[C@@H]1C[C@@H](O)CN1; Cit = NC(=O)NCCC[C@H](N)C(=O)O
Observation Type: hAM1R EC50 (cAMP) (nM)

INSERT INTO results (binder, comparator, value_reported) VALUES
  ('{C20 diacid-γGlu}-KCNTATCTVQRLAHQIYQYTDKDKDNVAPPTNVGSNG[Hyp]-NH2 (disulfide 2-7 (inferred); ends not checked) [SEQ ID NO: 48]', '=', 761),
  ('GCRTGTCTVQRLAHQIYQFTDKDKDNVAPRTKIGPQG[Hyp]-NH2 (disulfide 2-7 (inferred); ends not checked) [SEQ ID NO: 161]', '=', 2980),
  ('{C20 diacid-γGlu}-KCNTATCTVQ[Cit]LAEQIAQFTDKDKDNVAPPTNVGSNG[Hyp]-NH2 (disulfide 2-7 (inferred); ends not checked) [SEQ ID NO: 153]', '>', 5000),
  ('KCNTATCTVQWLAHQIYQATDKDKDNVAPPTNVGSNG[Hyp]-NH2 (disulfide 2-7 (inferred); ends not checked) [SEQ ID NO: 338]', '>', 5000);
